These entries and their values trace back to ChEMBL document CHEMBL4689842.

Would you kindly list Population Mitotic Cells (%) for each of these molecules?
Tested on: U2OS
experimental_protocol: Multiplex assay against U2OS
Assay type: toxicity, cell-based
measurement_context: human, 12 h, 10 µM, compound concentration 10 uM, replicate 2
Give bare numbers, in %.

Solved cases below.
{"columns": ["molecule", "target_desc", "recorded_measurement"],
 "data": [
  ["CN(C)C(=O)/C(C#N)=C/c1ccc(-c2nc3cnc4[nH]ccc4c3n2C2CCCCC2)o1", "U2OS", 81],
  ["CC(C)NCC(O)COc1ccc(CCOCC2CC2)cc1.Cl (centres undefined) [BETAXOLOL HYDROCHLORIDE]", "U2OS", 76],
  ["CC(C)(O)CNc1ncc(-c2ccnc(Nc3ccnc(Cl)c3)n2)c(CC2CC2)n1", "U2OS", 84]
]}

Retrieve Population Mitotic Cells (%) on U2OS; query `CN(C)CC#Cc1ccc(OCCCc2sc(N3CCc4cccc(C(=O)Nc5nc6ccccc6s5)c4C3)nc2C(=O)O)c(F)c1`
13

----------
Would you kindly list Population Normal (%) for each of these compounds?
System: Fibroblast
experimental_protocol: Multiplex assay against human fibroblast
Format: toxicity, cell-based
measurement_context: 12 h, 10 µM, compound concentration 10 uM, replicate 2
Answers are plain numbers, in %.

{"columns": ["compound", "observed_property", "recorded_measurement"],
 "data": [
  ["CNc1nc(NCc2ccc(NS(C)(=O)=O)cc2Cl)cc(-c2ccccn2)n1", "Population Normal (%)", 90]
]}

Provide Population Normal (%) for all items below, preserving their order.
1. COc1cccc([C@@H](C)NCCCc2ccccc2Cl)c1.Cl [TECALCET HYDROCHLORIDE]
2. COc1cc2nccc(Oc3ccc(NC(=O)Nc4cc(C)on4)c(Cl)c3)c2cc1OC.O
3. c1cn2cc(-c3ccc4cn[nH]c4c3)nc(Nc3ccc(N4CCOCC4)cc3)c2n1 [ENTOSPLETINIB]
4. CN1CCCC(n2nc(Cc3ccc(Cl)cc3)c3ccccc3c2=O)CC1.Cl (stereo not given) [AZELASTINE HYDROCHLORIDE]

94
96
74
95

----------
Test system: U2OS
experimental_protocol: Multiplex assay against U2OS
Format: toxicity, cell-based
measurement_context: human, 48 h, 10 µM, compound concentration 10 uM, replicate 2
Classification field. Basis: Population Mitotic Cells (%). Definitions: one = under 20%, two = from 20% up to 30%, three = 30% and over

{"columns": ["compound", "class_name"],
 "data": [
  ["CN1CCN(c2ccc(OC(F)(F)F)c(Nc3ncc4c(n3)-c3c(c(C(N)=O)nn3CCO)CC4)c2)CC1 [ONVANSERTIB]", "three"],
  ["OC1(c2ccc(Cl)cc2)CCN(Cc2c[nH]c3ccccc23)CC1", "two"],
  ["COc1ncc(-c2ccc3nccc(-c4ccnnc4)c3c2)cc1NS(=O)(=O)c1ccc(F)cc1F [OMIPALISIB]", "one"],
  ["CN(C)CC#Cc1ccc(OCCCc2sc(N3CCc4cccc(C(=O)Nc5nc6ccccc6s5)c4C3)nc2C(=O)O)c(F)c1 [A-1155463]", "one"],
  ["CN1CCCC(n2nc(Cc3ccc(Cl)cc3)c3ccccc3c2=O)CC1.Cl (stereo unspecified) [AZELASTINE HYDROCHLORIDE]", "one"]
]}

For the record CN(C)C(=O)N[C@H]1CC[C@H](CCN2CCN(c3cccc(Cl)c3Cl)CC2)CC1.Cl [CARIPRAZINE HYDROCHLORIDE] , report the class its Population Mitotic Cells (%) corresponds to.
two

For the record `Cc1[nH]c(/C=C2\C(=O)Nc3ccc(S(=O)(=O)N(C)c4cccc(Cl)c4)cc32)c(C)c1C(=O)N1CCN(C)CC1` , report the class its Population Mitotic Cells (%) corresponds to.
one

For the record C[C@@H](NCCCc1cccc(C(F)(F)F)c1)c1cccc2ccccc12.Cl [CINACALCET HYDROCHLORIDE] , report the class its Population Mitotic Cells (%) corresponds to.
one

For the record CN1CCN(CCOc2cc(OC3CCOCC3)c3c(Nc4c(Cl)ccc5c4OCO5)ncnc3c2)CC1 [SARACATINIB] , report the class its Population Mitotic Cells (%) corresponds to.
two

For the record O=C1NCN(c2ccccc2)C12CCN(CCCOc1ccc(F)cc1)CC2 [SPIRAMIDE] , report the class its Population Mitotic Cells (%) corresponds to.
three

For the record Cc1nc(-c2ccc(-c3ccc(C(=O)N4CCc5cc6c(cc54)C4(CCN(C)CC4)CO6)cc3)c(C)c2)no1 [SB-224289] , report the class its Population Mitotic Cells (%) corresponds to.
one

For the record `COc1cc(-n2cnc3cc(-c4ccc(Cl)cc4)sc3c2=O)ccc1OCCN1CCCC1` , report the class its Population Mitotic Cells (%) corresponds to.
three

For the record CC(C)NCC(O)COc1ccc(CCOCC2CC2)cc1.Cl (stereo unspecified) [BETAXOLOL HYDROCHLORIDE] , report the class its Population Mitotic Cells (%) corresponds to.
three

For the record C[C@@]1(C(=O)Nc2ccc(F)nc2)CCCN1c1nc(Nc2cc(C3CC3)n[nH]2)c2cccn2n1 [BMS-754807] , report the class its Population Mitotic Cells (%) corresponds to.
three

For the record `CN(C)C(=O)/C(C#N)=C/c1ccc(-c2nc3cnc4[nH]ccc4c3n2C2CCCCC2)o1` , report the class its Population Mitotic Cells (%) corresponds to.
three
